Collected IC50 values appear next to each entry.
target: KRAS G12V (Homo sapiens, UniProt P01116+P62937, G12V); assay: Disruption of BRAF RBD interaction with Ras (FRET / MOA assay, with Cyclophilin A); format: biochemical; details: KRAS G12V FRET data IC50, KRAS G12V
Sequence (P01116 1-169 isoform P01116-2 G12V limits assumed): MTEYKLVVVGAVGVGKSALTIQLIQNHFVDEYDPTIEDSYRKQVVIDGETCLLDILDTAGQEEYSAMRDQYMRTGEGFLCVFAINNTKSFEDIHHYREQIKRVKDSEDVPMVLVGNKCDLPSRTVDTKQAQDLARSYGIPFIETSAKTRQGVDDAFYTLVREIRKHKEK
Sequence (P62937 whole entry): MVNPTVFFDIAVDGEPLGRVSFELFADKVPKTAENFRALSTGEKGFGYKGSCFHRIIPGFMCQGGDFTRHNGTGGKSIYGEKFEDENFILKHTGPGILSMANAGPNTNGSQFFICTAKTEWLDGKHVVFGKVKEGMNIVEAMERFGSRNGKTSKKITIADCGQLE

Some solved entries appear below for comparison.
[ask] Give me measured IC50, please, for this compound: CCn1c(-c2cccnc2[C@H](C)OC)c2c3cc(ccc31)-c1cccc(c1)C[C@H](NC(=O)[C@H](C(C)C)N(C)C(=O)[C@H]1CCN(C(=O)CNC)C1)C(=O)N1CCC[C@H](N1)C(=O)OCC(C)(C)C2
[reply] 1000 to 10000 nM

[ask] Consider the compound CCn1c(-c2cnccc2COC)c2c3cc(ccc31)-c1cc(O)cc(c1)C[C@H](NC(=O)[C@H](C(C)C)N(C)C(=O)C1CCN(C)CC1)C(=O)N1CCC[C@H](N1)C(=O)OCC(C)(C)C2 . State its measured IC50.
[reply] 1000 to 10000 nM

[ask] Specify IC50 for CCn1c(-c2cccnc2[C@H](C)OC)c2c3cc(ccc31)-c1csc(n1)C[C@H](NC(=O)N1CCC[C@@H]1COC)C(=O)N1CCC[C@H](N1)C(=O)OCC(C)(C)C2 (atropisomer, axis not shown) and stop.
[reply] 10 to 100 nM

More entries:
[ask] Using known records, supply IC50 for CCn1c(-c2cnccc2COC)c2c3cc(ccc31)-c1cc(O)cc(c1)C[C@H](NC(=O)[C@H](C(C)C)N(C)C(=O)[C@H](C)O)C(=O)N1CCC[C@H](N1)C(=O)OCC(C)(C)C2
[reply] 100 to 1000 nM

[ask] Read off the recorded IC50 for CCn1c(-c2cccnc2[C@H](C)OC)c2c3cc(ccc31)-c1csc(n1)C[C@H](NC(=O)[C@H](C(C)C)N(C)C(=O)N1CCC[C@@H](N(C)C)CC1)C(=O)N1CCC[C@H](N1)C(=O)OCC(C)(C)C2
[reply] 100 to 1000 nM

[ask] Determine its reported IC50: CCn1c(-c2cnccc2COC)c2c3cc(ccc31)-c1cc(O)cc(c1)C[C@H](NC(=O)[C@H](C(C)C)N(C)C(=O)[C@@H]1NC[C@@H]3C[C@@H]31)C(=O)N1CCC[C@H](N1)C(=O)OCC(C)(C)C2
[reply] 100 to 1000 nM

[ask] Please indicate IC50 recorded for CCn1c(-c2cccnc2[C@H](C)OC)c2c3cc(ccc31)-c1csc(n1)C[C@H](NC(=O)[C@H](C(C)C)N(C)C(=O)N1CCC[C@H](CN(C)C)C1)C(=O)N1CCC[C@H](N1)C(=O)OCC(C)(C)C2 (atropisomer, axis not shown)
[reply] 100 to 1000 nM

[ask] Give the reported IC50 for this compound. CCn1c(-c2cccnc2[C@H](C)OC)c2c3cc(ccc31)-c1cc(O)cc(c1)C[C@H](NC(=O)[C@H](C(C)C)N(C)C(=O)[C@H]1C[C@@H](O)C1)C(=O)N1CCC[C@H](N1)C(=O)OCC(C)(C)C2 (atropisomer, axis not shown)
[reply] 10 to 100 nM

[ask] Note IC50 for the compound shown: C=CC(=O)N1CCO[C@@]2(CCN(C(=O)N(C)[C@H](C(=O)N[C@H]3Cc4nc(cs4)-c4ccc5c(c4)c(c(-c4cccnc4[C@H](C)OC)n5CC(F)(F)F)CC(C)(C)COC(=O)C4CCCN(N4)C3=O)C(C)C)C2)C1 (stereo partly drawn)
[reply] 100 to 1000 nM

Origin of the recorded values: patent US20230233569A1
